- assay.target: CDK6/CyclinD3 (Homo sapiens, UniProt Q00534)
- Sequence (Q00534 whole entry, species assumed): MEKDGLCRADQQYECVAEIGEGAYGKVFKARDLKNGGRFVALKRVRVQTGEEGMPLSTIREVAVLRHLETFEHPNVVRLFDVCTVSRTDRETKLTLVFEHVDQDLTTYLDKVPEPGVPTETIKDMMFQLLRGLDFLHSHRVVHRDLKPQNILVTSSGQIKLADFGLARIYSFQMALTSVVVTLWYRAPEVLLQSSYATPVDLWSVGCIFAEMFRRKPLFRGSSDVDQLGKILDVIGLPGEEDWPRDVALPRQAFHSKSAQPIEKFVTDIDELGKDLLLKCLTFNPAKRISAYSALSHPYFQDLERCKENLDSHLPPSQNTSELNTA
- Sequence (P30281 whole entry partner, species assumed): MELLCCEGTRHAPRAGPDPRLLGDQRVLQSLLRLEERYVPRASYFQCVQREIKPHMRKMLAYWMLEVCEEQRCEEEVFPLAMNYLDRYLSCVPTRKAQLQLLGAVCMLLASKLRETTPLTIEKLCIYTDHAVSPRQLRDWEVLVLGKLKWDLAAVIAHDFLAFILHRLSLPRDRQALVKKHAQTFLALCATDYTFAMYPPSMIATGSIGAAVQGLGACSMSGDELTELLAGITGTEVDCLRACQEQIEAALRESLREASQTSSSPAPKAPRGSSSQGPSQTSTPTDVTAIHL
- protocol.notes: CDK6/CycD3 kinase assay (Nanosyn, Caliper microfluidic)
- assay.conditions: 12-point dose-response, ATP 300 μM (Km), 3 hr; read-out: Inhibition of CDK kinases: Cdk6/CycD3
pIC50: −log10 of the molar value.
Would you kindly list pIC50 for each of these molecules?

Worked examples, 2 molecules total:
• CN1CCN(c2ccc(Nc3ncc4c(n3)N3C(CC4=O)C(=O)NCC34CCCCC4)nc2)CC1 (stereo not drawn) = < 4.00
• CN1CCN(c2ccc(Nc3ncc4c(n3)N3C(CC4=O)C(=O)NCC34CCCC4)nc2)CC1 (stereo not drawn) = < 4.00

Go through the list and state pIC50 for each entry.
1. CN1CCN(c2ccc(Nc3ncc4c(n3)N3C(CC4)C(=O)NCC34CCCCC4)nc2)CC1 (stereo not drawn)
2. CN1CCN(c2ccc(Nc3ncc4c(n3)N3C(CC4)C(=O)NCC3(C)C)nc2)CC1 (stereo not drawn)

4.00 to 5.00
< 4.00

Go through the list and state pIC50 for each entry.
1. CN1CCN(c2ccc(Nc3ncc4c(n3)N3C(CC4=O)C(=O)NCC3(C)C)nc2)CC1 (stereo not drawn)
2. CN1CCN(c2ccc(Nc3ncc4c(n3)N3CCNC(=O)C3CC4=O)nc2)CC1 (stereo not drawn)

1. 4.00 to 5.00
2. 4.00 to 5.00

###

- assay.target: CDK4/CyclinD1 (Homo sapiens)
- Sequence (P11802 whole entry, species assumed): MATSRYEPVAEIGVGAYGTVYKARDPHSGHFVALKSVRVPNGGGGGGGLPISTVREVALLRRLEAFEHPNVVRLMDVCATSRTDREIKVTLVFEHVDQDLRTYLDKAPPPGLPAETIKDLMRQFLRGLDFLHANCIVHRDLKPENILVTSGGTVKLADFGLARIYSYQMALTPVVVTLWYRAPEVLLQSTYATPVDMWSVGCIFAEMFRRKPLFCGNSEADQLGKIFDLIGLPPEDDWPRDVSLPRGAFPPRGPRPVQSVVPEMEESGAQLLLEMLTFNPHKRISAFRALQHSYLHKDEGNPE
- Sequence (P24385 whole entry partner, species assumed): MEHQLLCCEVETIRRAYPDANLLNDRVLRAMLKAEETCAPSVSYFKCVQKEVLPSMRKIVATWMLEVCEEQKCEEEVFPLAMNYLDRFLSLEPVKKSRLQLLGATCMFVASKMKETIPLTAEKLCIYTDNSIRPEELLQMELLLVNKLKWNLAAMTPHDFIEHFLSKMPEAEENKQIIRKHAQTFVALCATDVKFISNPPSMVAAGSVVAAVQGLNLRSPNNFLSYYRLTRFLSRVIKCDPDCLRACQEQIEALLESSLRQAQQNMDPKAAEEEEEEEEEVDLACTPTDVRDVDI
- protocol.notes: CDK4/cyclinD1 kinase assay (Nanosyn, Caliper microfluidic)
- assay.conditions: 12-point dose-response, ATP 200 μM (Km), 3 hr; read-out: Inhibition of CDK kinases: Cdk4/CycD1
Would you kindly list IC50 for each of these compounds?

Worked examples, 5 compounds total:
• CN1CCN(c2ccc(Nc3ncc4c(n3)N3C(CC4=O)C(=O)NCC3(C)C)nc2)CC1 (stereo not drawn) [YYY] = < 10 µM
• CN1CCN(c2ccc(Nc3ncc4c(n3)N3C(CC4)C(=O)NCC3(C)C)nc2)CC1 (stereo not drawn) [ZZZ] = > 100 µM
• CN1CCN(c2ccc(Nc3ncc4c(n3)N3CCNC(=O)C3CC4=O)nc2)CC1 (stereo not drawn) [GGGG] = 10 to 100 µM
• CN1CCN(c2ccc(Nc3ncc4c(n3)N3C(CC4)C(=O)NCC34CCCCC4)nc2)CC1 (stereo not drawn) [BBBB] = 10 to 100 µM
• CN1CCN(c2ccc(Nc3ncc4c(n3)N3C(CC4=O)C(=O)NCC34CCCCC4)nc2)CC1 (stereo not drawn) [AAAA] = > 100 µM

Reported IC50 ( CN1CCN(c2ccc(Nc3ncc4c(n3)N3C(CC4=O)C(=O)NCC34CCCC4)nc2)CC1 (stereo not drawn) [CCCC] ) = > 100 µM

###

- assay.target: CDK2/CyclinA (Homo sapiens)
- protocol.notes: CDK2/CycA kinase assay (Nanosyn, Caliper microfluidic)
- assay.conditions: 12-point dose-response, ATP 50 μM (Km), 3 hr; read-out: Inhibition of CDK kinases: Cdk2/CycA
Would you kindly list IC50 for each of these compounds?

* CN1CCN(c2ccc(Nc3ncc4c(n3)N3C(CC4=O)C(=O)NCC3(C)C)nc2)CC1 (stereo not drawn) | > 100 µM
* CN1CCN(c2ccc(Nc3ncc4c(n3)N3CCNC(=O)C3CC4=O)nc2)CC1 (stereo not drawn) | > 100 µM
* CN1CCN(c2ccc(Nc3ncc4c(n3)N3C(CC4)C(=O)NCC3(C)C)nc2)CC1 (stereo not drawn) | > 100 µM
* CN1CCN(c2ccc(Nc3ncc4c(n3)N3C(CC4)C(=O)NCC34CCCCC4)nc2)CC1 (stereo not drawn) | 10 to 100 µM
* CN1CCN(c2ccc(Nc3ncc4c(n3)N3C(CC4=O)C(=O)NCC34CCCC4)nc2)CC1 (stereo not drawn) | > 100 µM

Reported IC50 ( CN1CCN(c2ccc(Nc3ncc4c(n3)N3C(CC4=O)C(=O)NCC34CCCCC4)nc2)CC1 (stereo not drawn) ) = > 100 µM
